Biological target: Rabies virus glycoprotein G, strain CVS-11 (Challenge Virus Standard-11, ATCC VR 959) (Rabies virus, strain CVS-11)
Experiment: cell-based or functional assay
Reported metric: CVS neutralizing antibody titre (RFFIT): IU/mg (IU/mg)
Form entry: value (IU/mg) — number only.

213-H7 15GS 213-H7 (VHH) EVQLVESGGGLVQAGGSLRLSCAASGRTLSSYRMGWFRQAPGKEREFISTISWNGRSTYYADSVKGRFIFSEDNAKNTVYLQMNSLKPEDTAVYYCAAALIGGYYSDVDAWSYWGPGTQVTVSSGGGGSGGGGSGGGGSEVQLVESGGGLVQAGGSLRLSCAASGRTLSSYRMGWFRQAPGKEREFISTISWNGRSTYYADSVKGRFIFSEDNAKNTVYLQMNSLKPEDTAVYYCAAALIGGYYSDVDAWSYWGPGTQVTVSS	549
212-C12 15GS 212-C12 (VHH) EVQLVESGGGLVQPGGSLRLSCAASGFTFGSSDMSWVRQAPGKGPEWVSGINSGGGRTLYADSVKGRFTISRDNAKNTLYLQMNSLKSEDTAVYYCATDLYGSSWYTDYWSQGTQVTVSSGGGGSGGGGSGGGGSEVQLVESGGGLVQPGGSLRLSCAASGFTFGSSDMSWVRQAPGKGPEWVSGINSGGGRTLYADSVKGRFTISRDNAKNTLYLQMNSLKSEDTAVYYCATDLYGSSWYTDYWSQGTQVTVSS	330

// next entry
Given the entry 213-E6 5GS 213-E6 (VHH) EVQLVESGGGLVQAGASLRLSCAASGSTLSRYGVGWFRQAPGKERELVASVDWSGSRTYYADSVKGRFTISRDNAKNTGYLQMNSLKPDDTAVYYCAADSSVVPGIEKYDDWGLGTQVTVSSGGGGSEVQLVESGGGLVQAGASLRLSCAASGSTLSRYGVGWFRQAPGKERELVASVDWSGSRTYYADSVKGRFTISRDNAKNTGYLQMNSLKPDDTAVYYCAADSSVVPGIEKYDDWGLGTQVTVSS , report its measured CVS neutralizing antibody titre (RFFIT): IU/mg.
1300
